system: HS 578T breast; test: NCI-60 one-dose screen, 48 h (100 = growth as untreated, 0 = no growth, -100 = all killed); settings: 10 µM unless noted
Compounds without any hit were thinned out: in the full panel of roughly 83,000, 20% have a hit. The source made the active and inactive calls. The calls were made as follows: active = growth percent below 10; inactive = the rest.
Quick reference for growth among some molecules
quantity.name: growth

In [3]: df
Out[3]:
                                test_smiles  target_or_system            result
0                      COc1ccn(C)c(=O)c1C#N    HS 578T breast   105% (inactive)
1     CC1(C)S[C@H]2CC[C@H]3OC(=O)[C@@H]1N23    HS 578T breast   112% (inactive)
2               CNC(=O)O/N=C(\SC)C(=O)N(C)C    HS 578T breast  96.4% (inactive)
3  C[C@]12CCc3sc(Nc4ccc(O)cc4)nc3C1=CC[C@@H]1[C@@H]2CC[C@]2(C)C(=O)CC[C@@H]12    HS 578T breast  53.6% (inactive)
4  C[C@]12CC[C@H](O)C[C@@H]1CC[C@@H]1[C@@H]2CC[C@]2(C)OC(=O)CC[C@@H]12    HS 578T breast   111% (inactive)

###

test system: MCF7 breast; test: NCI-60 one-dose screen, 48 h (100 = growth as untreated, 0 = no growth, -100 = all killed); conditions: 10 µM unless noted
This is part of a sample that, as a whole, favours compounds with a hit. Of some 83,000 tested, about 20% had one in any assay.
Consider the cut-off 90%. If the recorded growth is strictly smaller, the label is Condition met; if not, the label is Condition not met.

test.smiles	label
CO[C@H]1[C@H](O[C@@H]2C[C@@H]3C/C=C/C(=O)O[C@@H](CO)C[C@H](O)[C@@H]4C[C@H](C)[C@H](C/C=C\C=C\[C@H](C)C[C@H](C2)O3)O4)O[C@@H](C)[C@H](O)[C@H]1O	Condition met
O=[P+](O)c1cccnc1	Condition not met
Cc1cc2c(cc1-c1ccnc(/C=C/C(=O)O)c1)C(C)(C)CCC2(C)C	Condition met
CN1[C@@H](CC(=O)c2ccccc2)CCC[C@H]1CC(=O)c1ccccc1	Condition not met
OCCNC1CCCCC1	Condition not met
CCCCS(=O)(=O)Cl	Condition not met

###

system: HCC-2998 colon; assay: NCI-60 one-dose screen, 48 h (100 = growth as untreated, 0 = no growth, -100 = all killed); conditions: 10 µM unless noted
This is part of a sample that, as a whole, favours compounds with a hit. Of some 83,000 tested, about 20% had one in any assay. Activity calls are given as the source filed them. How the source made its calls: active means growth percent below 10; inactive means the rest.

test.smiles	target.or.system	growth
CC[C@H](C)[C@H]1O[C@]2(C=C[C@@H]1C)C[C@@H]1C[C@@H](C/C=C(\C)[C@@H](O[C@H]3C[C@H](OC)[C@@H](O[C@H]4C[C@H](OC)[C@@H](NC)[C@H](C)O4)[C@H](C)O3)[C@@H](C)/C=C/C=C3\CO[C@@H]4[C@H](O)C(C)=C[C@@H](C(=O)O1)[C@]34O)O2	HCC-2998 colon	-83.9% (active)
N#CCC(=O)c1ccccc1	HCC-2998 colon	71.2% (inactive)
C[C@]12CCc3nc(-c4ccc(O)c(O)c4)sc3C1=CC[C@@H]1[C@@H]2CC[C@]2(C)C(=O)CC[C@@H]12	HCC-2998 colon	99.2% (inactive)

###

Tested on: EKVX NSCLC
Test: NCI-60 one-dose screen, 48 h (100 = growth as untreated, 0 = no growth, -100 = all killed)
Details: 10 µM unless noted
Method: Growth inhibition of the EKVX human Non-Small Cell Lung tumor cell line is measured as a screen for anti-cancer activity. Cells are grown in 96 well plates and exposed to the test compound for 48 hours. Compounds are tested at a single concentration, which is 10^-5 M for most compounds. The reported endpoint is percent growth (GI% or GIPRCNT), where numbers from 0 - 100% represent growth inhibition, and numbers from -100% - 0 represent cell death. […]
This is part of a sample that, as a whole, favours compounds with a hit. Of some 83,000 tested, about 20% had one in any assay.
Measured growth values are reported for all entries that follow.

molecule	growth, %
OCCN=Cc1c[nH]c2ccccc12	93.8
Cc1c(C)c(N)c(C)c(C)c1N	108
COc1ccc2c(c1)c(-c1nc(-c3cn(C)c4ncccc34)cs1)cn2CCCCN1CCOCC1	60.2
CCOC(=O)c1cncn1C(C)c1ccccc1 (centres undefined)	98.2
C[C@]12CCc3sc(Nc4ccc(F)cc4F)nc3C1=CC[C@@H]1[C@@H]2CC[C@]2(C)C(=O)CC[C@@H]12	78.4
CC[C@H](C)[C@H]1O[C@]2(C=C[C@@H]1C)C[C@@H]1C[C@@H](C/C=C(\C)[C@@H](O[C@H]3C[C@H](OC)[C@@H](O[C@H]4C[C@H](OC)[C@@H](NC)[C@H](C)O4)[C@H](C)O3)[C@@H](C)/C=C/C=C3\CO[C@@H]4[C@H](O)C(C)=C[C@@H](C(=O)O1)[C@]34O)O2	-40.9
CCCCOCCOP(=O)(OCCOCCCC)OCCOCCCC	97.7
COC(=O)C12C3C4C1C1C2C3C41NC(=O)c1csc([C@@H](C[C@H](C(C)C)N(C)C(=O)[C@@H](NC(=O)[C@H]2CCCCN2C)C2CC2)OC(C)=O)n1 (some centres undefined)	60.2
S=P(SP(=S)(c1ccccc1)c1ccccc1)(c1ccccc1)c1ccccc1	97.6

###

test system: SF-268 CNS; assay: NCI-60 one-dose screen, 48 h; settings: 10 µM unless noted
About 83,000 compounds went through this panel and 20% of them were active in at least one assay; those are over-represented in the sample as a whole. Activity calls are given as the source filed them. How the source made its calls: active means growth percent below 10; inactive means the rest.
Outcome codes: YES = active, NO = inactive

molecule	label
Nc1cccnc1	NO
C/C(=N/OC(=O)N(C)C)c1ccc(Cl)c(Cl)c1	NO
CCN(CC)CCn1c(=O)n(C)c2ccccc21	NO
OCCN=Cc1c[nH]c2ccccc12	NO
NC(=O)Oc1cc(OC(N)=O)cc(N(CCCl)CCCl)c1	NO
CC1(C)CN=C(NN=C(/C=C/c2ccc(C(F)(F)F)cc2)/C=C/c2ccc(C(F)(F)F)cc2)NC1	YES
O=NN1CCCCC1	NO
Nc1nc(=S)nc(N)[nH]1	NO
O=[N+]([O-])c1ccc(P(=O)(O)O)cc1	NO
CC[C@H](CC[C@@H](C)[C@H]1CC[C@H]2[C@@H]3CC[C@H]4C[C@]5(CC[C@]4(C)[C@H]3CC[C@]12C)OO[C@](C)(C(F)(F)F)O5)C(C)C	NO
CC1=CC(=Nc2ccc(N(CCCl)CCCl)cc2)C=C(C)C1=O	YES
COc1cc2c(cc1OC)-c1c3c(cc4c1[C@@H](C2)N(C)CC4)OCO3	NO
O=S(=O)(F)c1cccc(Cl)c1C[P+](c1ccccc1)(c1ccccc1)c1ccccc1	NO
O=S(=O)(c1ccc(O)cc1)c1ccccc1O	NO
CC[C@H](C)[C@H](NC(=O)CN(C)C)C(=O)N(C)[C@H](C[C@@H](OC(C)=O)c1nc(C(=O)NC23C4C5C2C2C3C4C52C(=O)OC)cs1)C(C)C (some centres undefined)	NO
N#CC(C#N)=C(C#N)C#N	NO
C[C@]12C[C@H](c3ccoc3)OC(=O)[C@H]1CC[C@@]1(C)[C@@H]2[C@H]2C=C[C@]1(O)C(=O)O2	NO
CCC1(NC(=O)c2cc(F)c(F)c(F)c2F)C(=O)NC(=O)N(C(C)C)C1=O (centres undefined)	NO
C[C@]12CC[C@H](O)C[C@@H]1CC[C@@H]1[C@@H]2CC[C@]2(C)OC(=O)CC[C@@H]12	NO
Cc1cc(N)ccc1N	NO
Oc1cc(N2CC2)c(O)cc1N1CC1	YES
NC1CN2CCC1CC2 (centres undefined)	NO
COc1cc(/C=C\[N+](=O)[O-])ccc1OCc1ccccc1	NO
O=C(NC1=NCC[Se]1)c1ccccc1O	NO

###

tested on: BT-549 breast; assay: NCI-60 one-dose screen, 48 h (100 = growth as untreated, 0 = no growth, -100 = all killed); conditions: 10 µM unless noted
This is part of a sample that, as a whole, favours compounds with a hit. Of some 83,000 tested, about 20% had one in any assay.
quantity.name: growth (%)

compound	measured.number
CC1(C)N(Nc2ccccc2)C(=O)C2CCCN21 (stereo not drawn)	13.6
C#Cc1cccc(Nc2nc(Cl)nc3cc(NC(=O)CF)ccc23)c1	72.2
O=C(NC1=NCC[Se]1)c1ccccc1O	82.1
c1ccc(CCN2CCCCC2)nc1	99.8
Cc1ccc(S(=O)(=O)n2cc([C@@]3(O)C[C@H](CSC#N)OC3=O)c3ccccc32)cc1	70.9
Cc1ccc(NC2=N[C@]34CC(=O)CC[C@]3(C)[C@H]3CC[C@]5(C)C(=O)CC[C@H]5[C@@H]3C[C@@H]4S2)c(C)c1	2.85
C[N+]12CCC34C5=CC(=O)C(=O)C=C5[N+]5(C)C(=O)CC6OCC=C(C1)C(CC32)C6C45 (stereo not drawn)	127
N#CCc1ccc(CC#N)cc1	95.9
CCOC(=O)C1C(C=C(C)C)C1(C)C (stereo not drawn)	104
CC1=C(C)C(=O)O[C@@H]([C@](C)(O)[C@]2(O)CC[C@@]3(O)[C@@H]4C[C@H]5O[C@]56CC=CC(=O)[C@]6(C)[C@H]4CC[C@]23C)C1	-24.4
COc1cc(C2C3=C(CCCC3=O)N(CCO)c3cc4c(cc32)CCC4)cc(OC)c1OC (stereo not drawn)	109
COc1ccc(C(C#N)C(C)=O)cc1 (stereo not drawn)	100
C[C@]12CCc3sc(Nc4ccc(F)cc4F)nc3C1=CC[C@@H]1[C@@H]2CC[C@]2(C)C(=O)CC[C@@H]12	59.6
CC(=O)OC1CC2(O)C(CCC3(C)C(c4ccc(=O)oc4)CCC32O)C2(C)CCC(OC3OC(CO)C(O)C(O)C3O)C=C12 (stereo not drawn)	-85.4
CC(=O)c1cccc(S(=O)(=O)F)c1	88.8
Cc1cc(C(C)(C)C)ccc1O	109
CCOP(=O)(NC)OCC	112
CC[C@H](C)[C@H](NC(=O)[C@H]1CCCCN1C)C(=O)N(C)[C@H](C[C@@H](OC(C)=O)c1cccc(C(=O)N[C@@H](Cc2ccccc2)C[C@H](C)C(=O)OC)n1)C(C)C	-22.5
ClCc1ccc(Cl)c(Cl)c1	104
NC(=O)Oc1cc(OC(N)=O)cc(N(CCCl)CCCl)c1	68.2
O=C(O)C(Br)CBr (stereo not drawn)	100
COc1cc(/C=C\[N+](=O)[O-])ccc1OCc1ccccc1	37.2
N#CC(C#N)=Cc1cccc(F)c1	111
